# reported Mortality; entries follow
System: American cockroach
Assay: Lethal effect of injected test chemicals
Assay type: in vivo
Settings: 500 μg/roach injected; 72 hr.; dead/10; control 1/10
Method: Further studies were conducted to determine the LD 50 of purified naturally occurring plant essential oils and/or their constituents. […] Ten roaches per dose were used. Another group of ten roaches received the same volume of vehicle only (0.5 μl) and used as a control group. Mortality was recorded 24, 48, and 72 hours after exposure.

C=C(C)[C@H]1CC=C(C)CC1 [d-limonene]; 0/10

Task: Report Mortality for CC12CCC(CC1)C(C)(C)O2 [Eucaluptol, Eucalyptol] please.
Result: 0/10

Task: Report Mortality for OCCc1ccccc1 [phenethyl alcohol] please.
Result: 0/10

* * *

System: American cockroach
Assay: Cross walk jar test on pre-treated surface
Type: in vivo
Conditions: Periplaneta americana, 24 h
# reported mortality at 100 mg; entries follow
Kindly answer with a numeric value in %, unit omitted.

Solved entries:
CCC(=O)OCCc1ccccc1 [Phenethyl propionate]; 100
CC1=CCC(C(C)(C)O)CC1 (stereo not drawn) [α-terpineol]; 20
Cc1ccc(C(C)C)cc1O [Carvacol, Carvacrol]; 100
OCc1ccccc1 [Benzyl Alcohol]; 0
C=CCc1ccc(O)c(OC)c1 [eugenol]; 100
Cc1ccc(C(C)C)c(O)c1 [Thymol]; 100

Query compound follows.
Task: Report mortality at 100 mg for OCCc1ccccc1 [phenethyl alcohol] please.
Result: 0

* * *

Tested on: octopamine receptor sites
Assay: 3H-OA binding to ventral nerve cord / synaptosomal membrane protein
Design: species or system American cockroach (Periplaneta americana)
Conditions: 500 ng/ml; Table 3; solvent control 1385 ± 101
Answer false (0) if cpm 3H-OA/500 μg protein is under 1000 cpm 3H-OA/500 μg protein, and true (1) if it is 1000 cpm 3H-OA/500 μg protein or more.

Some solved cases for reference:
CCOc1cc(C=O)ccc1O; true (1)
OCc1ccc2c(c1)OCO2; true (1)
O=Cc1ccc2c(c1)OCO2; true (1)
CC1=CC[C@H](C(C)C)C=C1; true (1)
Cc1ccc(C(C)C)c(O)c1; true (1)

Task: Form field: cpm 3H-OA/500 μg protein at least 1000 cpm 3H-OA/500 μg protein? Entry: CC(=O)OCc1ccc2c(c1)OCO2 [Piperonyl acetate]
Result: true (1)

Task: Form field: cpm 3H-OA/500 μg protein at least 1000 cpm 3H-OA/500 μg protein? Entry: C/C=C/c1ccc(OC)cc1 [Trans-Anethole]
Result: true (1)

Task: Form field: cpm 3H-OA/500 μg protein at least 1000 cpm 3H-OA/500 μg protein? Entry: CC12CCC(CC1)C(C)(C)O2
Result: true (1)

Task: Form field: cpm 3H-OA/500 μg protein at least 1000 cpm 3H-OA/500 μg protein? Entry: Cc1ccc(C(C)C)cc1
Result: true (1)

Task: Form field: cpm 3H-OA/500 μg protein at least 1000 cpm 3H-OA/500 μg protein? Entry: CCC(=O)OCCc1ccccc1 [Phenethyl propionate]
Result: false (0)

Task: Form field: cpm 3H-OA/500 μg protein at least 1000 cpm 3H-OA/500 μg protein? Entry: COC(=O)c1ccccc1O [Methyl salicylate]
Result: false (0)

Task: Form field: cpm 3H-OA/500 μg protein at least 1000 cpm 3H-OA/500 μg protein? Entry: COc1ccccc1O
Result: true (1)

Task: Form field: cpm 3H-OA/500 μg protein at least 1000 cpm 3H-OA/500 μg protein? Entry: C=C(C)[C@H]1CC=C(C)CC1
Result: true (1)

* * *

# reported Mortality; entries follow
Tested on: American cockroach
Experiment: Lethal effect of injected test chemicals
Format: in vivo
Details: 500 μg/roach injected; 72 hr.; dead/10; control 1/10

Solved entries:
CC(C)=C1CC[C@@H](C)CC1=O; 7/10
CC(C)=CCCC(C)CC=O (stereo not drawn); 0/10

Query compound follows.
Task: Return Mortality measured with American cockroach given this compound: C=CCc1ccc(O)c(OC)c1
Result: 6/10
